Values were extracted from patent US20090176776A1.

- protocol-text: MTS score (Table 1; method not described)
- Format: cell-based
- protocol-conditions: score at nominal 100 μM; 4 = No Effect
# MTS 100 μM per entry
The answer should be written as a number, with no unit following it.

The cases that follow already have their MTS 100 μM on record.
{"compound": "CCOC(=O)c1c(N2C(=O)C=CC2=O)sc2c1CCCC2 [Compound 8]", "MTS 100 μM": 3}
{"compound": "Nc1nc(-c2ccccc2Cl)cs1 [Compound 15]", "MTS 100 μM": 2}
{"compound": "Cc1cc(F)ccc1NCc1ccccn1 [Compound 16]", "MTS 100 μM": 1}
{"compound": "CC(C)(C)c1ccc(OCCN2CCOCC2)cc1 [Compound 60]", "MTS 100 μM": 2}
{"compound": "O=C(O)c1ccc2c(c1)C1C=CCC1C(c1cccc([N+](=O)[O-])c1)N2 (stereo not shown) [Compound 59]", "MTS 100 μM": 4}
{"compound": "O=C(NN=Cc1cc(Cl)cc([N+](=O)[O-])c1O)c1ccc2c(c1)OCO2 [Compound 37]", "MTS 100 μM": 1}
{"compound": "Cc1ccc(S(=O)(=O)NN=Cc2cc(Br)cc(Br)c2O)cc1 [Compound 73]", "MTS 100 μM": 2}
{"compound": "O=[N+]([O-])c1c(Cl)cc(O)c2c1C1C=CCC1C(c1ccc(Br)cc1)N2 (stereo not shown) [Compound 25]", "MTS 100 μM": 1}

**Q:** Which MTS 100 μM value belongs to COc1c(O)ccc(C=NNC(=O)COc2cccc(C)c2)c1[N+](=O)[O-] [Compound 39] ?
**A:** 1

**Q:** Then this compound: Oc1ccc(C=NNc2cc(N3CCOCC3)nc(N3CCOCC3)n2)c(O)c1 [Compound 9]
**A:** 1

* * *

- protocol-text: MTS score (Table 1; method not described)
- Type: cell-based
- protocol-conditions: score at nominal 100 μM; 4 = No Effect
Collected MTS 100 μM values appear next to each entry.

Guide cases for MTS 100 μM, answers given:
{"compound": "O=C(O)c1ccc2c(c1)C1C=CCC1C(c1ccc([N+](=O)[O-])cc1)N2 (centres unmarked)", "metric-name": "MTS 100 μM", "obs-value": 3}
{"compound": "Cc1ncc(C[n+]2csc(CCOC(=O)C3C4CC5CC(C4)CC3C5)c2C)c(N)n1.Cl.[Cl-] (centres unmarked)", "metric-name": "MTS 100 μM", "obs-value": 4}
{"compound": "COc1ccc(OCC(=O)NN=Cc2cc(O)c(O)c(Br)c2)c(Br)c1", "metric-name": "MTS 100 μM", "obs-value": 1}

**Q:** Can you look up the measured MTS 100 μM of O=C(NN=Cc1c(Br)cc(Br)c(O)c1Br)c1ccccc1[N+](=O)[O-] for me?
**A:** 3

**Q:** Subsequent entry: Cc1ccc(OCC(=O)NN=Cc2ccncc2)cc1
**A:** 3

* * *

MTS 30 μM values by entry
- protocol-text: MTS score (Table 1; method not described)
- Assay type: cell-based
- protocol-conditions: score at nominal 30 μM; 4 = No Effect
The response must contain the number and no unit.

{"compound": "O=C(NN=Cc1cc(Cl)cc([N+](=O)[O-])c1O)c1ccc2c(c1)OCO2", "MTS 30 μM": 1}
{"compound": "O=C1Nc2c(Br)cc(Br)cc2C1=NNC(=O)C(O)c1ccccc1 (stereo not shown)", "MTS 30 μM": 2}

**Q:** Field request: MTS 30 μM | item: COc1c(O)ccc(C=NNC(=O)COc2cccc(C)c2)c1[N+](=O)[O-]
**A:** 2

* * *

- protocol-text: MTS score (Table 1; method not described)
- Format: cell-based
- protocol-conditions: score at nominal 30 μM; 4 = No Effect
metric-name: MTS 30 μM
Kindly provide the number alone.

**Q:** I would be grateful if you could share the reported MTS 30 μM for COc1ccc(NS(=O)(=O)c2ccc(Br)cc2)cc1OC .
**A:** 1

**Q:** Same question for CC(C)(C)c1ccc(OCC(=O)NN=Cc2ccc(O)c([N+](=O)[O-])c2)cc1 please.
**A:** 3

**Q:** What would you report for O=C(O)c1ccc2c(c1)C1C=CCC1C(c1cccc([N+](=O)[O-])c1)N2 (centres unmarked) ?
**A:** 4

**Q:** Here is the next molecule: CC(C)(C)c1ccc(OCCN2CCOCC2)cc1
**A:** 4

**Q:** Could you do the same for CCOC(=O)c1c(N2C(=O)C=CC2=O)sc2c1CCCC2 , please?
**A:** 4

* * *

- Tested on: Luc-M7 cells
- protocol-text: Cell viability of Luc-M7 cells (Cell-Titer Glo)
- Type: cell-based
- Parameters: unit: μM
- protocol-conditions: mock-infected Luc-M7 cells, 6 days
Listed next: entries and their corresponding TC50.
Answer with the value's number alone.

Please review the entries below; each comes with its answer.
{"compound": "CCN(CC)c1ccc(C=Nc2ccc(Sc3ccc([N+](=O)[O-])cc3)cc2)cc1", "metric-name": "TC50", "obs-value": 92.5}
{"compound": "O=C(O)c1ccc2c(c1)C1C=CCC1C(c1cccc([N+](=O)[O-])c1)N2 (stereo not drawn)", "metric-name": "TC50", "obs-value": 84.1}

**Q:** Returns the measured TC50 for the input compound. Input: CCc1ccc(OCCCCCn2ccnc2)cc1
**A:** 8.7

* * *

- protocol-text: MTS score (Table 1; method not described)
- Format: cell-based
- protocol-conditions: average of the MTS scores at 10, 30 and 100 μM
Label scheme for MTS AVG 4 (No Effect): lower than 2 is Not met, 2 and above is Met.

Example entries begin here.
{"compound": "Cc1ccc(OCC(=O)NN=Cc2c(Br)cc(Br)c(O)c2Br)cc1", "classification": "Met"}
{"compound": "Cc1nc2ccccc2n1Cc1ccc(Br)cc1", "classification": "Not met"}
{"compound": "O=C(O)c1ccc2c(c1)C1C=CCC1C(c1cccc([N+](=O)[O-])c1)N2 (centres unmarked)", "classification": "Met"}

**Q:** Hi team, for O=C1Nc2c(Br)cc(Br)cc2C1=NNC(=O)C(O)c1ccccc1 (centres unmarked) , is the recorded MTS AVG 4 (No Effect) at or above 2?
**A:** Met

**Q:** Okay, and Cc1ccc(C(C)C)c(OCC(=O)NN=Cc2ccc(C(=O)O)cc2)c1 ?
**A:** Met

**Q:** Can you handle COc1c(O)ccc(C=NNC(=O)COc2cccc(C)c2)c1[N+](=O)[O-] next?
**A:** Met

**Q:** Same lookup for Cc1ncc(C[n+]2csc(CCOC(=O)C3C4CC5CC(C4)CC3C5)c2C)c(N)n1.Cl.[Cl-] (centres unmarked) , please.
**A:** Met

**Q:** Can you handle CC(C)(C)c1ccc(OCC(=O)NN=Cc2ccc(O)c([N+](=O)[O-])c2)cc1 next?
**A:** Met

* * *

Listed below: pIC50 values for each entry.
- assayed-system: recombinant HIV-1 capsid protein (CA) (Human immunodeficiency virus type 1 group M subtype B, UniProt P12493)
- Construct: recombinant HIV-1 capsid protein (CA)
- protocol-text: Turbidity based HIV-1 capsid assembly assay
- protocol-conditions: initial assembly rate by turbidity; twofold dilutions over a 128 fold range; 30 μM CA, 2.25 M NaCl
- Method: The kinetics can be followed by monitoring the increase of turbidity using a spectrophotometer. The IC50 of the chemical compound tested is determined by titration. As the C-domain inhibits capsid assembly by forming CA-C-domain heterodimers, the effect of added C-terminal domain on the rate of assembly was evaluated by plotting the rate of assembly versus C-terminal domain concentration. […]
A value of pIC50 is the negative decimal logarithm of a concentration given in moles per litre.

{"molecule": "CC(C)(C)c1ccc(OCCN2CCOCC2)cc1 [Compound 60]", "metric-name": "pIC50", "obs-value": 4.12}

**Q:** Consider the molecule shown here: O=C(NN=Cc1c(Br)cc(Br)c(O)c1Br)c1ccccc1[N+](=O)[O-] [Compound 23] What is its recorded pIC50?
**A:** 4.92

**Q:** Please give the result for COc1c(O)ccc(C=NNC(=O)COc2cccc(C)c2)c1[N+](=O)[O-] [Compound 39] too.
**A:** 4.55

**Q:** Same question, Cc1ccc(S(=O)(=O)NN=Cc2cc(Br)cc(Br)c2O)cc1 [Compound 73] this time
**A:** 4.82

* * *

Each entry below lists one item and its recorded MTS 100 μM value.
- protocol-text: MTS score (Table 1; method not described)
- Format: cell-based
- protocol-conditions: score at nominal 100 μM; 4 = No Effect
The answer should be written as a number, with no unit following it.

{"compound": "Cc1ccc(OCC(=O)NN=Cc2c(Br)cc(Br)c(O)c2Br)cc1", "MTS 100 μM": 4}
{"compound": "Cc1nc2ccccc2n1Cc1ccc(Br)cc1", "MTS 100 μM": 1}
{"compound": "COc1ccc(NS(=O)(=O)c2ccc(Br)cc2)cc1OC", "MTS 100 μM": 2}

**Q:** Requested read-out: MTS 100 μM. Entry: CCc1ccc(OCCCCCn2ccnc2)cc1
**A:** 1

**Q:** Could you do the same for CC(C)(C)c1ccc(OCC(=O)NN=Cc2ccc(O)c([N+](=O)[O-])c2)cc1 , please?
**A:** 3

**Q:** What do we get for CCN(CC)c1ccc(C=Nc2ccc(Sc3ccc([N+](=O)[O-])cc3)cc2)cc1 ?
**A:** 2

**Q:** Please give the result for O=C1Nc2c(Br)cc(Br)cc2C1=NNC(=O)C(O)c1ccccc1 (stereo not drawn) too.
**A:** 1

**Q:** What would you report for Cc1ccc(C(C)C)c(OCC(=O)NN=Cc2ccc(C(=O)O)cc2)c1 ?
**A:** 3

**Q:** Continue with O=C(COc1ccc2ccccc2c1)NN=Cc1cc(O)c(O)c(Br)c1
**A:** 1

**Q:** Also need O=C(O)C(S)Cc1ccc(Cl)cc1 (stereo not drawn) , thanks.
**A:** 1

**Q:** Next compound: Cc1ccc(NCC(=O)NN=Cc2c(Br)cc(Br)c(O)c2Br)cc1
**A:** 2

**Q:** Another compound: CC(=NNC(=O)C(O)c1ccccc1)c1ccc2c(c1)CCCC2 (stereo not drawn)
**A:** 2
